study.system: NADPH oxidase 2 (Homo sapiens) (UniProt P04839)
Sequence (P04839 whole entry, looked up): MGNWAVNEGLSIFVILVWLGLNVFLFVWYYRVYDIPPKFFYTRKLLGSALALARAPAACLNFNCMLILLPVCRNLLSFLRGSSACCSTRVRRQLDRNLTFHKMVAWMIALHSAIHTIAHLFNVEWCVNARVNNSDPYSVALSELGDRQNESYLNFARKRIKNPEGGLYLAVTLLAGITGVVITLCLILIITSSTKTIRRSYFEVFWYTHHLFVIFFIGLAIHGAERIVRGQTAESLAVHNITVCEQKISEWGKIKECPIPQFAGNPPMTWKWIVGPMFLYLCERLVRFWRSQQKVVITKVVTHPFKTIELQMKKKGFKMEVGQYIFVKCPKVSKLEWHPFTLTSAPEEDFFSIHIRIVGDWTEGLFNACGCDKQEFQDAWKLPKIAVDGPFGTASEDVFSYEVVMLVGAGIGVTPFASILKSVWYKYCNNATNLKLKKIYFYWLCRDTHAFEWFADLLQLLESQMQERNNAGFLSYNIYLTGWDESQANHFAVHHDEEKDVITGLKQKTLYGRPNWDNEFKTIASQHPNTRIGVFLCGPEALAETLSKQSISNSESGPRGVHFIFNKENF
assay.procedure: compounds shifting NOX2 Amplex Red fluorescence – cell-based, HEK293-NOX2, PMA-stimulated, NOX inhibitor project, primary screen (AID 1159); note: test concentration not given here
stated.conditions: 45 min, higher = more signal, called active from +8 up or from −8 down
Field: z-score. Provide a value for each of the compounds that follow.
One number for each entry.

Kindly state the measured z-score obtained for CC(C)C[C@H]1NC(=O)C([C@@H](C)OCc2ccccc2)NC(=O)[C@@]23C(=O)N[C@@H](Cc4ccccc4)C2[C@H](C)[C@@]2(C)O[C@H]2C3/C=C/C/C=C\CNC1=O (stereo partly drawn) with NADPH oxidase 2 (Homo sapiens) (UniProt P04839).
0.569

Kindly state the measured z-score obtained for "COC(=O)[C@H](Cc1ccccc1)N1CC2=CCCC=C[C@@H]2[C@H]1[C@H](O)Cc1ccccc1" with NADPH oxidase 2 (Homo sapiens) (UniProt P04839).
-0.286

Next compound, please.
Kindly state the measured z-score obtained for C=CCC(OC(C)=O)[C@@H]1[C@@H](N(Cc2cc3ccccc3o2)C(=O)Cc2ccc(OC)cc2)c2cc(OCCCO)ccc2N1C(=O)c1ccc2ccccc2n1 (stereo partly drawn) with NADPH oxidase 2 (Homo sapiens) (UniProt P04839).
0.226
